Target: T1, Cre recombinase monomer with Y324T mutation
T1 chain: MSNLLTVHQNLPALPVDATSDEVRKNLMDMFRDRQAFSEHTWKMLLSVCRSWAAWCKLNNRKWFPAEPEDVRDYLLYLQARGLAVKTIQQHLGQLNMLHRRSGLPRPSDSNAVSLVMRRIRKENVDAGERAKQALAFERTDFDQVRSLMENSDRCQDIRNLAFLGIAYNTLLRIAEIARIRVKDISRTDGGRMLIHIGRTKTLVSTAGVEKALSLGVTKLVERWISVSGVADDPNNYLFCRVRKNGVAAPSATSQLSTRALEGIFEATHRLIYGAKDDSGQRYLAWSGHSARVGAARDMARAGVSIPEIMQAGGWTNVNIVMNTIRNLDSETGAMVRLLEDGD
recorded metric: Median dimer activity (recombination on loxP) (%)
One number for each entry, in %.

Entry Cre recombinase monomer with Q311R mutation (protein) MSNLLTVHQNLPALPVDATSDEVRKNLMDMFRDRQAFSEHTWKMLLSVCRSWAAWCKLNNRKWFPAEPEDVRDYLLYLQARGLAVKTIQQHLGQLNMLHRRSGLPRPSDSNAVSLVMRRIRKENVDAGERAKQALAFERTDFDQVRSLMENSDRCQDIRNLAFLGIAYNTLLRIAEIARIRVKDISRTDGGRMLIHIGRTKTLVSTAGVEKALSLGVTKLVERWISVSGVADDPNNYLFCRVRKNGVAAPSATSQLSTRALEGIFEATHRLIYGAKDDSGQRYLAWSGHSARVGAARDMARAGVSIPEIMRAGGWTNVNIVMNYIRNLDSETGAMVRLLEDGD — recorded Median dimer activity (recombination on loxP) = 85

Source listed as patent US20230183713A1.
